Origin of values: PubChem BioAssay (NCI)

System: OVCAR-4 ovarian
assayExplanation: NCI tumour cell line growth inhibition, 48 h
Would you mind telling me the reported TGI of each entry?
Answers are plain numbers, in µM.

sampleSmiles	numericValue
CSc1cc(-c2ccccn2)nc(-c2ccccn2)c1	13.2

# ---- query molecule ----
stdin: What does the data say about its TGI? Entry: COc1cccc2c1-c1c(c3ccc([N+](=O)[O-])cc3c(=O)n1CCCN)C2=O
stdout: 3.94

====

For each record, write down the corresponding TGI.
Tested on: HL-60(TB) leukemia
assayExplanation: NCI tumour cell line growth inhibition, 48 h

Solved entries:
compound	result
Clc1ccc(-c2csc(Nc3cccc(-c4csc(-c5ccccc5)n4)c3)n2)cc1	40.9 µM
O=C(O)c1cn(C2CC2)c2cc(N3CCN(C(=O)Nc4nc(-c5ccccc5)cs4)CC3)c(F)cc2c1=O	4.41 µM
CCO[C@@]1(COCc2ccccc2)OC(=O)C[C@@H]1N1C(=O)OC[C@@H]1c1ccccc1	> 100 µM
COC12CCCN1c1ccn(Cc3ccccc3)c(=O)c1C2=O (stereo unspecified)	> 100 µM
COc1ccc(/C=C2\CCS(=O)(=O)c3ccccc3C2=O)cc1OC	70 µM

Here are 6 compounds. What values of TGI were reported for them?
1. c1ccc(CN[C@]23C4C5CC6C7C5C2C7[C@@](NCc2ccccc2)(C64)N3Cc2ccccc2)cc1 (stereo partly specified)
2. O=[N+]([O-])c1ccccc1S(=O)(=O)c1ccccc1
3. CN(C)c1nnnn1-c1c(N)n(C)c(=O)n(C)c1=O
4. CC1=CC(=O)C(C(C)C)=CC1=Nc1cc(Br)c(O)c(Br)c1
5. CCCCC(C)C(OC(=O)CC(CC(=O)O)C(=O)O)C(CC(C)CC(O)CCCCC(O)CC(O)C(C)N)OC(=O)CC(CC(=O)O)C(=O)O (stereo unspecified)
6. Cc1ccc2c(=O)c(C(=O)Nn3c(C)csc3=S)c[nH]c2n1

stdout:
> 100 µM
> 100 µM
> 100 µM
8.5 µM
> 100 µM
> 100 µM

====

System: NCI-H226 lung
assayExplanation: NCI tumour cell line growth inhibition, 48 h
quantity: TGI (µM)
Give bare numbers, in µM.

# annotated cases, reported TGI shown
sampleSmiles	unit	TGI
Cc1ccc(-c2c3c(nn2-c2ccc(S(N)(=O)=O)cc2)-c2ccccc2C3)cc1	µM	44
Cc1cc(S(=O)(=O)/N=C/N(C)C)c(SC(=O)c2ccc(Cl)cc2)cc1Cl	µM	87.2
Cc1c(-c2ccccc2)nn2cc(-c3ccccc3)nnc12	µM	49.5
COc1ccc2c(c1)CC[C@@H]1[C@@H]2CC[C@]2(C)[C@@H](NC(=O)/C=C/c3ccc(O)c(O)c3)CC[C@@H]12	µM	6.45

stdin: Suppose we examine the molecule CSc1c(C#N)c(N)nc2c(N=Nc3ccc(Br)cc3)c(N)nn12 ; what TGI value has been reported?
stdout: 39.5

====

Test system: HCC-2998 colon
assayExplanation: NCI tumour cell line growth inhibition, 48 h
quantity: TGI

Solved entries:
compound	target	quantity	result
Cn1c(=O)c(NC(=O)C(Cl)(Cl)Cl)nc2ccccc21	HCC-2998 colon	TGI	> 100 µM
O=C(CSc1ncn[nH]1)C[P+](c1ccccc1)(c1ccccc1)c1ccccc1	HCC-2998 colon	TGI	> 100 µM
Nc1ccccc1.[C-]#[O+].[C-]#[O+].[C-]#[O+].[C-]#[O+].[C-]#[O+].[Cr]	HCC-2998 colon	TGI	> 10 µM
COC(=O)/C=C\C(C#N)(C#N)N=Cc1ccccc1	HCC-2998 colon	TGI	35.1 µM
Cc1cn(C2C=CC(CO)O2)c(=O)[nH]c1=O (stereo unspecified)	HCC-2998 colon	TGI	> 1000 µM

Proceeding to the next compound to report its TGI.
stdin: Which TGI value belongs to C=CC(OC(C)=O)c1ccc(OC(=O)C(C)C)c(OC)c1 (stereo unspecified) ?
stdout: 29.5 µM
